- Test system: NF-κB
- experimental protocol: EMSA of NF-κB translocation / DNA binding in A549 cells
- particulars: A549 cells, 1 μg/ml, 45 min, EMSA of whole cell extracts

- molecule: "AB′n1-163: flagellin variant N-terminal 1-163, C-terminal 402-450, SEQ ID NO: 40 (protein, Salmonella dublin) MRGSHHHHHHGMASMTGGQQMGRDLYDDDDKDPMAQVINTNSLSLLTQNNLNKSQSSLSSAIERLSSGLRINSAKDDAAGQAIANRFTSNIKGLTQASRNANDGISIAQTTEGALNEINNNLQRVRELSVQATNGTNSDSDLKSIQDEIQQRLEEIDRVSNQTQFNGVKVLSQDNQMKIQVGANDGETITIDLQKIIPGISGGGGGILDSMGTLINEDAAAAKKSTANPLASIDSALSKVDAVRSSLGAIQNRFDSAITNL"
  NF-κB Stimulation: "Yes"
- molecule: "A: flagellin N-terminus (1-177), SEQ ID NO: 20 (protein, Salmonella dublin) MRGSHHHHHHGMASMTGGQQMGRDLYDDDDKDPMAQVINTNSLSLLTQNNLNKSQSSLSSAIERLSSGLRINSAKDDAAGQAIANRFTSNIKGLTQASRNANDGISIAQTTEGALNEINNNLQRVRELSVQATNGTNSDSDLKSIQDEIQQRLEEIDRVSNQTQFNGVKVLSQDNQMKIQVGANDGETITIDLQKIDVKSLGLDGFNVNSPG"
  NF-κB Stimulation: "No"
- molecule: "AB′n1-170: flagellin variant N-terminal 1-170, C-terminal 402-450, SEQ ID NO: 38 (protein, Salmonella dublin) MRGSHHHHHHGMASMTGGQQMGRDLYDDDDKDPMAQVINTNSLSLLTQNNLNKSQSSLSSAIERLSSGLRINSAKDDAAGQAIANRFTSNIKGLTQASRNANDGISIAQTTEGALNEINNNLQRVRELSVQATNGTNSDSDLKSIQDEIQQRLEEIDRVSNQTQFNGVKVLSQDNQMKIQVGANDGETITIDLQKIDVKSLGLIPGISGGGGGILDSMGTLINEDAAAAKKSTANPLASIDSALSKVDAVRSSLGAIQNRFDSAITNL"
  NF-κB Stimulation: "Yes"

Origin of measurements: patent US8580321B2
